Attribution: paper PMC12489471

Molecular target: T1, PNPase (Escherichia coli, UniProt P05055)
T1 construct: made in house; host or cells: E. coli Evo21(DE3)
T1 sequence (P05055 whole entry, looked up): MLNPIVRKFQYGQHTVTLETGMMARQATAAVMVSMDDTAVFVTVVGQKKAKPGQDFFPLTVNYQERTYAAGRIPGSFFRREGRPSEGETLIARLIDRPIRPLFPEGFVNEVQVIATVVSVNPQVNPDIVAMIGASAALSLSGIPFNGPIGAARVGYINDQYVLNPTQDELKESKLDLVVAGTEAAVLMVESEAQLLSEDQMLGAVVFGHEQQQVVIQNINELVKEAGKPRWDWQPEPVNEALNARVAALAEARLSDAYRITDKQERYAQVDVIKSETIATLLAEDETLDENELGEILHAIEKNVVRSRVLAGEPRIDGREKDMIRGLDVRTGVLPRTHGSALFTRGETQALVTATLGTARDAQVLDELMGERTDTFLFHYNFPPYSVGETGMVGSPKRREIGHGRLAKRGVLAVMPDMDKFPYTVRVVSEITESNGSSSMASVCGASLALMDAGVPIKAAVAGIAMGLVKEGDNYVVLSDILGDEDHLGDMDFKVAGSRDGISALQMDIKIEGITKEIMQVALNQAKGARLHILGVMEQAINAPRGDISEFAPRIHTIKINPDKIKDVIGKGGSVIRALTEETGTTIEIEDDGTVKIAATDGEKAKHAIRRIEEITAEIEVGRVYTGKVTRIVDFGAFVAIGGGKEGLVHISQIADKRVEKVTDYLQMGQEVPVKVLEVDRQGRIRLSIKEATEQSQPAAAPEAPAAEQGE
Type: binding, E. coli
Conditions: SPR, 25°C, immobilized PNPase C-His; HEPES pH 7.2; 0, 12.5, 25 and 50 nM (point mutants); contact 120 s, dissociation 120 s; duplicates
REPORTED_METRIC: Kd (dissociation rate constant, point mutants and wildtype) (s⁻¹)
Write the answer as a number in s⁻¹, unit excluded.

get_value(item= RNase E 960 – 1061 R1056A: RNase E peptide with point mutation of Arg1056 to alanine (left off: His6, N-terminal, cleaved | MBP, N-terminal, cleaved | intein, C-terminal, cleaved | choline-binding domain, C-terminal, cleaved, RNase E peptide with point mutation of Arg1056 to alanine) VVETAEVVVAEPEVVAQPAAPVVAEVAAEVETVAAVEPEVTVEHNHATAPMTRAPAPEYVPEAPRHSDWQRPTFAFEGKGAAGGHTATHHASAAPAAPQPVE , readout=Kd (dissociation rate constant, point mutants and wildtype)) returns 0.045
